# assaySystem: T1, human GPVI on platelets (human, UniProt Q9HCN6 21-339)
# T1 sequence (looked up): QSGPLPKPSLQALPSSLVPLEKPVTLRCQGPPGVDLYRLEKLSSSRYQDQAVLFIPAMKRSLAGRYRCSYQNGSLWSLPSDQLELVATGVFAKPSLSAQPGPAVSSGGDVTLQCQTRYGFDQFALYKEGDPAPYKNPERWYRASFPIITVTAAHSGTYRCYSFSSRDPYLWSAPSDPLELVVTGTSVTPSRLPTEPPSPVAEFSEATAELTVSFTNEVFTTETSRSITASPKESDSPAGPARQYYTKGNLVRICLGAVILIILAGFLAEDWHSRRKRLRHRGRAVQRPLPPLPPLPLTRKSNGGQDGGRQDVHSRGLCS
# protocolDetails: cell-based or functional assay
quantity: IC50 for inhibition of collagen induced platelet aggregation (human PRP), Test 3 (µg/mL)

humanized anti-GPVI Fab VL3/VH2 (Fab, V domains shown, Recombinant Fab: VH fused to CH1 of human IGHG1 (Q569F4), HC ends in DKTHT; VL fused to human constant kappa (Q502W4); also called VL3 with VH2) VH: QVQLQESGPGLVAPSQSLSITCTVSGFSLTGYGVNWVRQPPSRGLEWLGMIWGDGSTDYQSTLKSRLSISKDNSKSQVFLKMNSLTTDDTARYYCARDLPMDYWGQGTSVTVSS VL: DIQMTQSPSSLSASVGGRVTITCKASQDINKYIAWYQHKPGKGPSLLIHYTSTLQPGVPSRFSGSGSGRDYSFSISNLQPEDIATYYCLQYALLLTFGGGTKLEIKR: 2.1
humanized anti-GPVI Fab VL1/VH4 (Fab, V domains shown, Recombinant Fab: VH fused to CH1 of human IGHG1 (Q569F4), HC ends in DKTHT; VL fused to human constant kappa (Q502W4); also called VL1 with VH4) VH: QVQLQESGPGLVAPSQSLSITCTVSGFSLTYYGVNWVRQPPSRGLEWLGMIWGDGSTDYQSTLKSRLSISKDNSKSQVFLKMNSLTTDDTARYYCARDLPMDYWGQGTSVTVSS VL: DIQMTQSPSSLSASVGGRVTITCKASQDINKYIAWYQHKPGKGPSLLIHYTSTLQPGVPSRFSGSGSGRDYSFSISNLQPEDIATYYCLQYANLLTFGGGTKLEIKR: 1.2

These measurements were taken from patent US20150098939A1.
